system: HEK293; assay: Cytotoxic Profiling of Annotated Libraries Using Quantitative High-Throughput Screening (AID 1296008); conditions: Five cell lines viability, CellTiter-Glo ATP luminescence, 48-72 h; further: nearly all actives have a fitted effect of over 60% in size; further: potency means the concentration at half of the fitted maximal effect
Records with an inconclusive call do not appear. Calls of active or inactive are those of the source. The call rests on the fitted dose curve; in most records, active means well fitted inhibition curve with a large enough effect; inconclusive means small, poorly fitted or top-dose-only effect; inactive means flat fitted curve, though single readings scatter.
QUANTITY NAME: Potency

Example entries and their recorded answers appear below.
>>> measurement("CC(=O)O[C@@H]1[C@@H](O)[C@H]2O[C@@H]3C=C(C)[C@@H](O)C[C@]3(CO)[C@]1(C)[C@]21CO1")
"321 nM (active)"
>>> measurement("CO[C@@H]1[C@H](O)[C@@H](O[C@@H]2C[C@H]3CC[C@@H]4C(CC[C@]5(C)[C@@H](C6=CC(=O)OC6)CC[C@]45O)[C@@]3(C)[C@H](O)C2)O[C@H](C)[C@@H]1O (stereo partly specified)")
"224 nM (active)"
>>> measurement("C=C(C)C(=O)O[C@H]1[C@@H]2[C@H](C)C(=O)O[C@@H]2C[C@@H](C)[C@@H]2C=CC(=O)[C@]21C")
"3600 nM (active)"

Task item: Check the records and state Potency for COC1CCCC(C)OC(=O)Cc2cc(O)cc(O)c2C(=O)C1 (stereo unspecified)
Reply: 3600 nM (active)

Task item: Check the records and state Potency for "CC[C@H](O)[C@@H](C)[C@H]1O[C@@H]1C[C@H](C)/C=C/C=C(\C)[C@H]1OC(=O)C[C@H](O)CC[C@@](C)(O)[C@@H](OC(C)=O)/C=C/[C@@H]1C"
Reply: 4.1 nM (active)

Task item: Check the records and state Potency for "CC[C@H](C)[C@H](NC(=O)[C@H]1CCCCN1C)C(=O)N(COC(=O)CC(C)C)[C@H](C[C@@H](OC(C)=O)c1nc(C(=O)N[C@@H](Cc2ccc(O)cc2)C[C@H](C)C(=O)O)cs1)C(C)C"
Reply: 0.4 nM (active)

====

target: Ubiquitin carboxyl-terminal hydrolase 1 (Homo sapiens) (UniProt O94782); experiment: Inhibitors of USP1/UAF1: Pilot qHTS (AID 504865); conditions: purified USP1/UAF1, Ub-rhodamine cleavage fluorescence; series mostly up to 114 µM; further: nearly all actives have a fitted effect of over 35% in size
Sequence (O94782 whole entry, looked up): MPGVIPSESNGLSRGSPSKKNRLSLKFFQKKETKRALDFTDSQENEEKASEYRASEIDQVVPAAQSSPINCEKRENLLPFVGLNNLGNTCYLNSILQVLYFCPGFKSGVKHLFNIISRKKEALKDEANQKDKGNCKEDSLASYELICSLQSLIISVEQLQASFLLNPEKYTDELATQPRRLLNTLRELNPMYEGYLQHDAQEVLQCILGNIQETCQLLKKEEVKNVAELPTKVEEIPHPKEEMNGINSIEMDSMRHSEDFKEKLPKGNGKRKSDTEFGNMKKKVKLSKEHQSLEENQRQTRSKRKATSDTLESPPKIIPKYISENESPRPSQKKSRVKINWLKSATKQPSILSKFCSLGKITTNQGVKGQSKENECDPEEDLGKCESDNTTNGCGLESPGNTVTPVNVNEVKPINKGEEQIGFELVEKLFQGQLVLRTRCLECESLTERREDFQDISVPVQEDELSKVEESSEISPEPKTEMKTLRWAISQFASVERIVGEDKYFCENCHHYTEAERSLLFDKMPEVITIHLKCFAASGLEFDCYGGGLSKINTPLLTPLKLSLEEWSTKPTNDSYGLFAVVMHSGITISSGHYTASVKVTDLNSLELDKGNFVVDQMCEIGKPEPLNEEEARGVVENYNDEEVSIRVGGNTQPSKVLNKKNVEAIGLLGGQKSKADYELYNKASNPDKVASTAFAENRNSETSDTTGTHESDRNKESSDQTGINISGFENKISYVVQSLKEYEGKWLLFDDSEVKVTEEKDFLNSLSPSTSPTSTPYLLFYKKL
Results filed as inconclusive are left out. Calls of active or inactive are those of the source. The call rests on the fitted dose curve; in most records, active means well fitted inhibition curve with a large enough effect; inconclusive means small, poorly fitted or top-dose-only effect; inactive means flat fitted curve, though single readings scatter.
API: response.call in active, inactive

Worked set:
>>> assigned_category("O=C(O)Cc1cccnc1C(=O)O")
"inactive"
>>> assigned_category("C[C@@H](N)Cn1ccc2cc(F)c(Cl)cc21")
"inactive"
>>> assigned_category("CC(C)=CCCC1(C)C=Cc2c(O)c3c(c(CC=C(C)C)c2O1)OC12C(=CC4CC1C(C)(C)OC2(C/C=C(/C)C(=O)O)C4O)C3=O (stereo not given)")
"active"
>>> assigned_category("C[C@@]12CCC(OS(=O)(=O)O)C[C@@H]1CCC1C2CC[C@]2(C)C(=O)CCC12 (stereo not given in full)")
"inactive"
>>> assigned_category("COC1C(O)C(C)O[C@@H](OC2CC[C@@]3(C)C4CC[C@]5(C)C(C6=CC(=O)OC6)CC[C@@]5(O)C4CC[C@@H]3C2)C1O (stereo not given in full)")
"inactive"

Task item: Given "CNCC/C=C\c1cccnc1" , state the outcome it received in this test.
Reply: inactive

Task item: Given "Brc1c(Br)c(Br)c2n[nH]nc2c1Br" , state the outcome it received in this test.
Reply: active

Task item: Given "Cl.Cl.Cl.Cl.Cl.Cl.N.N.N.N.NNNNN.NNNNN.O.O.[Ru].[Ru].[Ru]" , state the outcome it received in this test.
Reply: active

Task item: Given "CC(C)[C@@H]1CN[C@H](C(=O)O)[C@@H]1CC(=O)O" , state the outcome it received in this test.
Reply: inactive

Task item: Given "CC(C)(C)NC[C@@H](O)COc1cccc2[nH]c(C#N)cc12" , state the outcome it received in this test.
Reply: inactive

====

assay: qHTS for H2AX Agonists against the NCATS CANVASS Library (AID 1347378); conditions: CHO-K1 H2AX phosphorylation, HTRF TR-FRET, 3 h; series mostly up to 76.9 µM;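 further: phospho-H2AX S139 level in CHO-K1 lysates by TR-FRET emission ratio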; on activation: 0% is about no effect
Results filed as inconclusive are left out. The source made the active and inactive calls. Calls follow the shape of the dose curve; as a rule, active = well fitted activation curve with a large enough effect; inconclusive = small, poorly fitted or top-dose-only effect; inactive = flat fitted curve, though single readings scatter.
API: response.call in 1 = active, 0 = inactive

>>> assigned_category("C[C@@H]1CC[C@@H](c2ccoc2)N2C[C@@]3(CC[C@@H]12)CS[C@@]1(CC[C@H]2[C@H](C)CC[C@@H](c4ccoc4)N2[C@@H]1O)C3")
1
>>> assigned_category("CCCC[C@@H]1CC[C@H]2CCCC(CCC)N12 (some centres not stated)")
0

Task item: Given "CO[C@@H](/C=C/CC/C=C/C(=O)O)[C@@H](O)[C@H](C)[C@@H](O)/C(C)=C/[C@H](C)C(=O)CCCC1CC(=O)NC(=O)C1" , state the outcome it received in this test.
Reply: 0

Task item: Given COc1ccc(C23Oc4cc(OC)cc(OC)c4[C@](O)([C@H](c4ccccc4)C2C(=O)NCCCCNC(=O)c2ccccc2)[C@@H]3O)cc1 (some centres not stated) , state the outcome it received in this test.
Reply: 0

Task item: Given CCN1C[C@]2(C)CC[C@H](O)[C@]34C1C(C[C@H]23)[C@@]12CC[C@H](CC14)[C@](O)(COC(=O)c1ccc(OC)c(OC)c1)[C@H]2O (some centres not stated) , state the outcome it received in this test.
Reply: 0

Task item: Given CO[C@H](c1ccccc1)[C@H]1NC(=O)C(C)NC(=O)C(C[C@@H](C)CO)N(C)C(=O)[C@@H](C(O)c2cn(C(C)(C)C3CO3)c3ccccc23)NC(=O)C(C(C)C=C(C)C)NC(=O)C(CC(C)C)N(C)C(=O)C(C(C)C)NC1=O (some centres not stated) , state the outcome it received in this test.
Reply: 0

Task item: Given "CCC[C@H]1CC[C@H]2[C@H](C)CCC[C@H]2N1" , state the outcome it received in this test.
Reply: 0

====

assay: qHTS for Inhibitors of the Functional Ribonucleoprotein Complex (vRNP) of Lymphocytic Choriomeningitis Arenaviruses (LCMV): Viability assay - alamar blue signal for LCMV Primary Screen (AID 1347085); settings: alamar blue viability counter-screen, LCMV vRNP screen cells; series mostly up to 57.5 µM; further: nearly all actives have a fitted effect of over 80% in size
Records with an inconclusive call do not appear. Active and inactive are the calls of the source. Calls come from the whole dose curve; tested in HEK293 reporter line.
API: response.call in active, inactive

Task item: Given "Cc1cccc(/C=C/c2ccccc2)n1" , state the outcome it received in this test.
Reply: inactive

Task item: Given C#CCN1C(C)=C(C(=O)OC)C(c2cccc([N+](=O)[O-])c2)C(C(=O)OCC)=C1C (configuration not stated) , state the outcome it received in this test.
Reply: inactive

Task item: Given CCCCC(CC)C(=O)O (configuration not stated) , state the outcome it received in this test.
Reply: inactive

Task item: Given "C[C@]12C=CC(=O)C=C1CC[C@@H]1[C@@H]2[C@@H](O)C[C@@]2(C)[C@@H]1CC[C@]2(O)C(=O)CO" , state the outcome it received in this test.
Reply: inactive

Task item: Given "COc1cc2oc(=O)c3c4c(cc5ccc(c1CCN(C)C)c2c53)OCO4" , state the outcome it received in this test.
Reply: inactive

Task item: Given "CN1CCc2ccccc2Cc2[nH]c3ccccc3c2CC1" , state the outcome it received in this test.
Reply: inactive

====

tested on: CRL-7250; experiment: Cytotoxic Profiling of Annotated Libraries Using Quantitative High-Throughput Screening (AID 1296008); conditions: Five cell lines viability, CellTiter-Glo ATP luminescence, 48-72 h; active compounds read low; further: nearly all actives have a fitted effect of over 60% in size; on max response: on the % scale 0 is the no-effect control and ±100 the full control effect
Results filed as inconclusive are left out.
Listed next: entries and their corresponding max response.
A number alone suffices; assume %.

Example entries and their recorded answers appear below.
>>> measurement("Oc1ccc2c(c1)C13CCCC[C@H]1[C@@H](C2)N(CC1CCC1)CC3")
-16.2
>>> measurement("C[C@H]1O[C@@H](n2cnc3c(N)ncnc32)C[C@@H]1O")
0.373
>>> measurement("O=S(=O)(c1ccccc1F)N1CCOc2c(N3CCNCC3)cccc21")
2.13
>>> measurement("CN1CCc2cc3c(cc2[C@H]1[C@@H]1OC(=O)c2c1ccc1c2OCO1)OCO3")
-0.453
>>> measurement("COC1(C[S@@](=O)c2ccccc2)CCN(CCc2c[nH]c3ccc(F)cc23)CC1")
3.05
>>> measurement("CCC1CN2CCC3(C(=O)Nc4cccc(O)c43)C2CC1/C(=C/OC)C(=O)OC (stereo not drawn)")
-15.5
>>> measurement("OCc1nnc2n1-c1ccc(Cl)cc1C(c1ccccc1Cl)=NC2")
0.641

Task item: Check the records and state max response for "C[C@]12CC[C@@H](O)C[C@@H]1CC[C@@H]1[C@@H]2CC[C@]2(C)C(=O)[C@@H](Br)C[C@@H]12"
Reply: -20.8

====

assay: qHTS for Inhibitors of the Functional Ribonucleoprotein Complex (vRNP) of Lymphocytic Choriomeningitis Arenaviruses (LCMV): Viability assay - alamar blue signal for LCMV Primary Screen (AID 1347085); settings: alamar blue viability counter-screen, LCMV vRNP screen cells; series mostly up to 57.5 µM; further: nearly all actives have a fitted effect of over 80% in size
Inconclusive results are not listed. Calls of active or inactive are those of the source. Calls follow the shape of the full dose curve; tested in HEK293 reporter line.
API: response.call in 1 (yes) = active, 0 (no) = inactive

>>> assigned_category("Cc1cn2cc(C(=O)N(C)CCO)cc(N[C@@H]3CCOc4cccc(C)c43)c2n1")
"0 (no)"

Task item: Given CCCCS(=N)(=O)CC[C@H](N)C(=O)O (stereo partly specified) , state the outcome it received in this test.
Reply: 0 (no)

Task item: Given "CCCCN1CCC(n2c(=O)[nH]c3ccccc32)CC1" , state the outcome it received in this test.
Reply: 0 (no)

Task item: Given COc1cc2cc(Oc3ccc4ccc(=O)oc4c3)c(=O)oc2cc1OC1OC(COC(=O)CC(C)(O)CC(=O)O)C(O)C(O)C1O (stereo unspecified) , state the outcome it received in this test.
Reply: 0 (no)

Task item: Given "c1ccc(C(NCCNC(c2ccccc2)c2ccccc2)c2ccccc2)cc1" , state the outcome it received in this test.
Reply: 0 (no)

Task item: Given "O=C(O)CCn1c2c(c3ccccc31)C[C@H](NS(=O)(=O)c1ccc(F)cc1)CC2" , state the outcome it received in this test.
Reply: 0 (no)

Task item: Given "Cc1ncc(-c2ccnc(Nc3ccc(S(C)(=O)=O)cc3)n2)n1C(C)C" , state the outcome it received in this test.
Reply: 1 (yes)

Task item: Given COc1cc2c(c(OC)c1OC)-c1c(cc(OC)c(OC)c1OC)CC(C)C(C)C2 (stereo unspecified) , state the outcome it received in this test.
Reply: 0 (no)

Task item: Given CC(C)C1Oc2cc3oc(=O)ccc3cc2C1=O (stereo unspecified) , state the outcome it received in this test.
Reply: 0 (no)

Task item: Given "CC(C)(C)c1ccc(S(=O)(=O)/C=C/C#N)cc1" , state the outcome it received in this test.
Reply: 0 (no)

Task item: Given "O=C(O)C1CCNCC1" , state the outcome it received in this test.
Reply: 0 (no)
